System: FD (familial dysautomonia) IKBKAP minigene, exon 20 inclusion, in HEK293T cells
Test: Primary splicing assay (FD IKBKAP minigene, Firefly/Renilla luciferase reporter in HEK293T)
Assay type: cell-based, human
Conditions: Homo sapiens, HEK-293T; max efficacy in Primary Assay; Firefly/Renilla ratio, kinetin and DMSO as positive and negative controls; 24 hours of treatment; read-out: Emax (%)
reported.endpoint: Emax (%)
Answers are plain numbers, in %.

Dear reader, for each entry below, please note its Emax.
1. CN(C)c1nc(NCc2ccco2)c2nc[nH]c2n1 [(60)]
2. Clc1nc(NCc2ccncc2)c2c(Cl)c[nH]c2n1 [(207)]
3. Clc1nc(NCc2ccco2)c2c(CN3CCCC3)c[nH]c2n1 [(173)]
4. Cc1cnccc1CNc1nc(Cl)nc2[nH]cnc12 [(268)]
5. CNCc1nc2c(NCc3ccco3)nc(Cl)nc2[nH]1 [(235)]
6. c1cc(CNc2ncnc3[nH]cnc23)ccn1 [(404)]
7. NC(=O)c1cc2c(NCc3ccco3)nc(Cl)nc2[nH]1 [(188)]

13
109
30
19
80
51
145

Dear reader, for each entry below, please note its Emax.
1. COCCOc1nc2c(NCc3ccncc3)nc(Cl)nc2[nH]1 [(290)]
2. Clc1nc(NCc2ccco2)c2nc[nH]c2n1 [(323)]

1: 238; 2: 26

Dear reader, for each entry below, please note its Emax.
1. Clc1cc(NCc2ccncc2)n2ncnc2n1 [(283)]
2. Clc1nc(NCc2ccco2)c2nc(-c3ccccc3)[nH]c2n1 [(93)]
3. COc1nc2c(NCc3cnccn3)nc(Cl)nc2[nH]1 [(374)]
4. Fc1ccc(CCNc2ncnc3[nH]cnc23)cc1 [(442)]

1. 29
2. 63
3. 34.2
4. 58.6

Dear reader, for each entry below, please note its Emax.
1. FC(F)(F)CCn1ccc2c(NCc3ccco3)nc(Cl)nc21 [(160)]
2. FC1(F)CC(COc2nc3c(NCc4nccs4)nc(Cl)nc3[nH]2)C1 [(362)]
3. COc1cc(CNc2nc(Cl)nc3[nH]ccc23)ccn1 [(237)]
4. N#Cc1c[nH]c2nc(Cl)nc(NCc3ccncn3)c12 [(152)]
5. Clc1nc(NCc2ccco2)c2nc(OC3COC3)[nH]c2n1 [(269)]

[85, 250, 21, 35, 119]

###

Task for the reader: assign each of the following compounds its reported Emax.
Test system: FD (familial dysautomonia) IKBKAP minigene, exon 20 inclusion, in HEK293T cells
Assay: Primary splicing assay (FD IKBKAP minigene, Firefly/Renilla luciferase reporter in HEK293T)
Format: cell-based, human
Conditions: Homo sapiens, HEK-293T; max efficacy in Primary Assay; Firefly/Renilla ratio, kinetin and DMSO as positive and negative controls; 24 hours of treatment; read-out: Emax (%)

Below, each entry is followed by its recorded Emax result.
Fill in the blank: the reported Emax of Clc1nc(NCc2ccco2)c2nc(OCC#Cc3ccccc3)[nH]c2n1 is ____.
24.9%

Fill in the blank: the reported Emax of CNCc1c[nH]c2nc(Cl)nc(NCc3ccco3)c12 is ____.
60%

Fill in the blank: the reported Emax of Clc1nc(NCc2ccco2)c2nc(OC3CCC3)[nH]c2n1 is ____.
109%

Fill in the blank: the reported Emax of FC(F)COc1nc2c(NCc3ccncc3)nc(Cl)nc2[nH]1 is ____.
193%

Fill in the blank: the reported Emax of Fc1ccccc1CNc1nc(Cl)nc2[nH]cnc12 is ____.
25%

Fill in the blank: the reported Emax of Clc1nc(NCc2ccco2)c2nc(OCCOc3ccccc3)[nH]c2n1 is ____.
93.4%

Fill in the blank: the reported Emax of Fc1nc(NCc2ccncc2)c2nc[nH]c2n1 is ____.
82%

Fill in the blank: the reported Emax of OCCn1cc(F)c2c(NCc3nccs3)nc(Cl)nc21 is ____.
201%

Fill in the blank: the reported Emax of Clc1cc(NCc2nccs2)n2ncnc2n1 is ____.
17%

Fill in the blank: the reported Emax of Cc1[nH]c2nc(Cl)nc(NCc3ccco3)c2c1Br is ____.
24%

Dear reader, for each entry below, please note its Emax.
1. CNCCn1ccc2c(NCc3ccco3)nc(Cl)nc21
2. CCCOc1nc2nc(Cl)nc(NCc3ccncc3)c2n1C

1: 36%; 2: 20%

Dear reader, for each entry below, please note its Emax.
1. CCCOc1nc2c(N(CCO)Cc3nccs3)nc(Cl)nc2[nH]1
2. O=C(O)c1ccc(CNc2nc(Cl)nc3[nH]ccc23)cc1
3. COc1ccc(C(=O)Nc2ncnc3[nH]cnc23)cc1
4. CN(C)Cc1c[nH]c2nc(Cl)nc(NCc3ccco3)c12
5. Clc1nc(NCc2ccncc2)c2nc(OC3COC3)[nH]c2n1

1. 85.2%
2. 14%
3. 42.8%
4. 28%
5. 155%

Dear reader, for each entry below, please note its Emax.
1. CCCOc1nc2c(NCc3ccncc3)nc(Cl)nc2[nH]1
2. CC(Nc1nc(Cl)nc2[nH]cnc12)c1ccncc1 (stereo not shown)
3. COc1cccc(Nc2nc(Cl)nc3[nH]cnc23)c1
4. Clc1nc(NCc2cc3ccccc3o2)c2cc[nH]c2n1
5. CN(C)c1nc2c(NCc3ccco3)nc(Cl)nc2[nH]1

1: 233%; 2: 19.2%; 3: 30.3%; 4: 35%; 5: 112%

###

Tested on: FD (familial dysautomonia) IKBKAP minigene, exon 20 inclusion, in HEK293T cells
Assay: Primary splicing assay (FD IKBKAP minigene, Firefly/Renilla luciferase reporter in HEK293T)
Assay type: cell-based, human
Conditions: Homo sapiens, HEK-293T; max efficacy in Primary Assay; Firefly/Renilla ratio, kinetin and DMSO as positive and negative controls; 24 hours of treatment; read-out: Emax (%)
Task for the reader: assign each of the following compounds its reported Emax.
Numbers only, in %.

Fill in the blank: the reported Emax of CCCCOc1nc2c(NCc3ccncc3)nc(Cl)nc2[nH]1 is ____.
284

Fill in the blank: the reported Emax of COC(=O)c1nc2c(NCc3ccco3)nc(Cl)nc2[nH]1 is ____.
59

Fill in the blank: the reported Emax of Clc1cc(NCc2nccs2)n2ccnc2n1 is ____.
54

Fill in the blank: the reported Emax of COCCOc1nc2c(NCc3nccs3)nc(Cl)nc2[nH]1 is ____.
184

Fill in the blank: the reported Emax of Clc1nc(NCc2ccco2)c2ccn(C3CCOCC3)c2n1 is ____.
20

Okay, next one:
Fill in the blank: the reported Emax of CNc1nc2c(NCc3ccco3)nc(Cl)nc2[nH]1 is ____.
132

###

System: FD (familial dysautomonia) IKBKAP minigene, exon 20 inclusion, in HEK293T cells
Assay: Primary splicing assay (FD IKBKAP minigene, Firefly/Renilla luciferase reporter in HEK293T)
Type: cell-based, human
Details: Homo sapiens, HEK-293T; max efficacy in Primary Assay; Firefly/Renilla ratio, kinetin and DMSO as positive and negative controls; 24 hours of treatment; read-out: Emax (%)
reported.endpoint: Emax (%)
Numbers only, in %.

Below, each entry is followed by its recorded Emax result.
Under FD (familial dysautomonia) IKBKAP minigene, exon 20 inclusion, in HEK293T cells: Emax value of Cn1cnc2c(NCc3ccco3)ncnc21 ?
22

Under FD (familial dysautomonia) IKBKAP minigene, exon 20 inclusion, in HEK293T cells: Emax value of Nc1nc2c(NCc3ccco3)nc(Cl)nc2[nH]1 ?
154

Dear reader, for each entry below, please note its Emax.
1. Clc1nc(NCc2ccco2)c2nc(C3CC3)[nH]c2n1
2. Clc1cc(NCc2ccco2)n2ccnc2n1
3. Cc1ccoc1CNc1ncnc2[nH]cnc12

103
56
13

Dear reader, for each entry below, please note its Emax.
1. CC(=O)N1CCC(n2ccc3c(NCc4ccco4)nc(Cl)nc32)CC1
2. Cc1cc2c(NCc3nccs3)nc(Cl)nc2[nH]1
3. CCOc1nc2c(NCc3nccs3)nc(Cl)nc2[nH]1

1. 14
2. 80
3. 130

###

Test system: FD (familial dysautomonia) IKBKAP minigene, exon 20 inclusion, in HEK293T cells
Assay: Primary splicing assay (FD IKBKAP minigene, Firefly/Renilla luciferase reporter in HEK293T)
Type: cell-based, human
Settings: Homo sapiens, HEK-293T; max efficacy in Primary Assay; Firefly/Renilla ratio, kinetin and DMSO as positive and negative controls; 24 hours of treatment; read-out: Emax (%)
Task for the reader: assign each of the following molecules its reported Emax.
Your answer should be a number followed by the unit of measure.

Below, each entry is followed by its recorded Emax result.
Under FD (familial dysautomonia) IKBKAP minigene, exon 20 inclusion, in HEK293T cells: Emax value of Clc1nc(NCc2ccncn2)c2c(Cl)c[nH]c2n1 ?
104%

Under FD (familial dysautomonia) IKBKAP minigene, exon 20 inclusion, in HEK293T cells: Emax value of Clc1nc(NCc2ccccn2)c2cc[nH]c2n1 ?
49.5%

Under FD (familial dysautomonia) IKBKAP minigene, exon 20 inclusion, in HEK293T cells: Emax value of OC[C@H]1O[C@@H](n2cnc3c(NCc4ccco4)ncnc32)[C@H](O)[C@@H]1O ?
90%

Under FD (familial dysautomonia) IKBKAP minigene, exon 20 inclusion, in HEK293T cells: Emax value of Clc1nc(NCc2ccnnc2)c2cc[nH]c2n1 ?
48%

Under FD (familial dysautomonia) IKBKAP minigene, exon 20 inclusion, in HEK293T cells: Emax value of Clc1nc(NCc2nccs2)c2nc(OCC3CCC3)[nH]c2n1 ?
226%

New cases:
Under FD (familial dysautomonia) IKBKAP minigene, exon 20 inclusion, in HEK293T cells: Emax value of NC(=O)c1c[nH]c2nc(Cl)nc(NCc3ccco3)c12 ?
59%
